Assay: in vivo
Conditions: iv, 4.37 mg/kg
parameter measured: AUC(0-inf) (ng·h/mL)
Numbers only; they are read as ng·h/mL.

// field: AUC(0-inf); key: COc1cc(C(=O)O)ccc1NC(=O)[C@@H]1N[C@@H](CC(C)(C)C)[C@](C#N)(c2ccc(Cl)cc2F)[C@H]1c1cccc(Cl)c1F ; value = 21600

* * *

Assay: in vivo
Settings: iv, 4.37 mg/kg
parameter measured: Cmax (ng/mL)
Numbers only; they are read as ng/mL.

// field: Cmax; key: COc1cc(C(=O)O)ccc1NC(=O)[C@@H]1N[C@@H](CC(C)(C)C)[C@](C#N)(c2ccc(Cl)cc2F)[C@H]1c1cccc(Cl)c1F [Compound B] ; value = 4390

Where do the numbers come from? From patent US8993614B2.
